- Tested on: Trypanosoma cruzi
- test.description: Inhibition of Trypanosoma cruzi Ribose 5-phosphate isomerase type B assessed as residual activity at 0.5 mM using ribose 5-phosphate as substrate relative to control
measured.metric: Activity
The number alone won't do; follow it with the unit.

Task: Name the recorded Activity of the compound listed here: O=C(CF)NCCOP(=O)(O)O
Result: 2040%

Task: Name the recorded Activity of the compound listed here: O=C(Cc1ccccc1)NCCOP(=O)(O)O
Result: 97.4%

Task: Name the recorded Activity of the compound listed here: O=C(CBr)NCCOP(=O)(O)O
Result: 62.7%

Task: Name the recorded Activity of the compound listed here: O=C(CCl)NCCOP(=O)(O)O
Result: 105%

Task: Name the recorded Activity of the compound listed here: O=C(CI)NCCOP(=O)(O)O
Result: 7.5%

###

- Test system: Trypanosoma cruzi
- test.description: Inhibition of Trypanosoma cruzi RPE1 assessed as residual activity at 0.2 mM relative to control
I'd be grateful if you could share measured Activity for these entries.
Your answer is read as %, so omit the unit and give the number.

Task: Name the recorded Activity of the molecule listed here: O=C(CI)NCCOP(=O)(O)O
Result: 89.5

Task: Name the recorded Activity of the molecule listed here: O=C(CBr)NCCOP(=O)(O)O
Result: 91.1

Task: Name the recorded Activity of the molecule listed here: O=C(CF)NCCOP(=O)(O)O
Result: 111

Task: Name the recorded Activity of the molecule listed here: O=C(Cc1ccccc1)NCCOP(=O)(O)O
Result: 100

Task: Name the recorded Activity of the molecule listed here: O=C(CCl)NCCOP(=O)(O)O
Result: 100

###

- System: Trypanosoma cruzi
- test.description: Inhibition of Trypanosoma cruzi RPE1 assessed as residual activity at 2 mM relative to control
measured.metric: Activity (%)
Your answer is read as %, so omit the unit and give the number.

Task: Name the recorded Activity of the compound listed here: O=C(CF)NCCOP(=O)(O)O
Result: 83.5

Task: Name the recorded Activity of the compound listed here: O=C(CI)NCCOP(=O)(O)O
Result: 57.4

Task: Name the recorded Activity of the compound listed here: O=C(CCl)NCCOP(=O)(O)O
Result: 82.6

Task: Name the recorded Activity of the compound listed here: O=C(Cc1ccccc1)NCCOP(=O)(O)O
Result: 85.9

Task: Name the recorded Activity of the compound listed here: O=C(CBr)NCCOP(=O)(O)O
Result: 65.1

###

- Test system: Trypanosoma cruzi
- test.description: Inhibition of Trypanosoma cruzi RPE1 assessed as residual activity at 0.5 mM relative to control
I'd be grateful if you could share measured Activity for these entries.
Your answer is read as %, so omit the unit and give the number.

Task: Name the recorded Activity of the compound listed here: O=C(CBr)NCCOP(=O)(O)O
Result: 85.8

Task: Name the recorded Activity of the compound listed here: O=C(CCl)NCCOP(=O)(O)O
Result: 103

Task: Name the recorded Activity of the compound listed here: O=C(CF)NCCOP(=O)(O)O
Result: 103

Task: Name the recorded Activity of the compound listed here: O=C(Cc1ccccc1)NCCOP(=O)(O)O
Result: 91.9

Task: Name the recorded Activity of the compound listed here: O=C(CI)NCCOP(=O)(O)O
Result: 89.5

###

- test.description: Competitive inhibition of Trypanosoma cruzi Ribose 5-phosphate isomerase type B using varying levels of ribose 5-phosphate as substrate by Dixon plot analysis
measured.metric: Ki (µM)
Your answer is read as µM, so omit the unit and give the number.

Task: Name the recorded Ki of the molecule listed here: O=C(CI)NCCOP(=O)(O)O
Result: 5.5

###

I'd be grateful if you could share measured Activity for these entries.
- System: Trypanosoma cruzi
- test.description: Inhibition of Trypanosoma cruzi Ribose 5-phosphate isomerase type B assessed as residual activity at 0.2 mM using ribose 5-phosphate as substrate relative to control
Your answer is read as %, so omit the unit and give the number.

Task: Name the recorded Activity of the compound listed here: O=C(CI)NCCOP(=O)(O)O
Result: 25.2

Task: Name the recorded Activity of the compound listed here: O=C(Cc1ccccc1)NCCOP(=O)(O)O
Result: 98.1

Task: Name the recorded Activity of the compound listed here: O=C(CCl)NCCOP(=O)(O)O
Result: 107

Task: Name the recorded Activity of the compound listed here: O=C(CBr)NCCOP(=O)(O)O
Result: 78.5

###

- System: Trypanosoma cruzi
- test.description: Inhibition of Trypanosoma cruzi RPE1 assessed as residual activity at 1 mM relative to control
I'd be grateful if you could share measured Activity for these entries.
Your answer is read as %, so omit the unit and give the number.

Task: GET Activity | system: Trypanosoma cruzi | item: O=C(CF)NCCOP(=O)(O)O
Result: 93.2

Task: GET Activity | system: Trypanosoma cruzi | item: O=C(CI)NCCOP(=O)(O)O
Result: 103

Task: GET Activity | system: Trypanosoma cruzi | item: O=C(Cc1ccccc1)NCCOP(=O)(O)O
Result: 87.4

Task: GET Activity | system: Trypanosoma cruzi | item: O=C(CCl)NCCOP(=O)(O)O
Result: 95.5

Task: GET Activity | system: Trypanosoma cruzi | item: O=C(CBr)NCCOP(=O)(O)O
Result: 77.3
